Hi there, I'd appreciate the recorded growth inhibition for every entry that follows.
assay: NCI Yeast Anticancer Drug Screen. Data for the sgs1 mgt1 strain (AID 161);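 note: 0% = growth of cultures given vehicle only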
protocol.conditions: S. cerevisiae sgs1 mgt1 strain, at 50.0 µM, stronger effect = higher value
The panel holds about 79,000 compounds, 15% with a hit somewhere; the sample as a whole holds those more often.
Answers are plain numbers, in %.

# compound, unit.spec, growth inhibition
records = [
    ("CC(C)(C)OC(=O)NN(CC(=O)OCc1ccccc1)N=O", "%", 2.9),
    ("CCN(CC)Cc1ccc([NH-])c([NH-])c1.CCN(CC)Cc1ccc([NH-])c([NH-])c1.[Cl][Pt+2][Cl].[Cl][Pt+2][Cl].[Cl][Pt+2][Cl]", "%", 35.6),
    ("CCSc1n[nH]c(=O)nc1NN", "%", -28.4),
    ("COc1ccc(C(C)=O)c(O)c1", "%", -10.2),
]

# batch: return growth inhibition for each of the 4 compounds below
1. CC(=O)Oc1c(C)c2c(O)c3c1C1=C(OCOC1=C(C)C3=O)/C(C)=C\C(C)(O)C(O)C(C)C(O)C1C(=O)OC(C(C)C1O)C(C)(O)/C=C/C=C(C)C(=O)N2 (configuration not stated)
2. CCCC(=O)n1[nH]c(=O)n(-c2ccc(Cl)cc2)c1=O
3. O=C(OCC(OC(=O)c1ccccc1)C(OC(=O)c1ccccc1)C(O)C(O)CO)c1ccccc1 (configuration not stated) (tested in a mixture with another compound)
4. CC(=O)OC1CC2CC3C(C)CCC3(C2(C)C)C1(C)O (configuration not stated)

A)
[-10.4, 19.8, 9.55, -0.7]

Provide reported growth inhibition for each item, in the same order as listed.
1. C/C(CC(C)(C)C)=N/NS(=O)(=O)c1ccc(C)cc1
2. CCCCCCCCCCCCCCCC[N+](C)(C)CCN=[N+]=[N-]
3. CCOC(=O)Nc1ccc(S(=O)(=O)c2ccc(Nc3ccnc4cc(Cl)ccc34)cc2)cc1

A)
1. 9.8
2. 99.7
3. 27.2

// each listed compound needs a value for growth inhibition
1. O=C[C@@H](CO)O[C@H](C=O)c1c[nH]c(=O)[nH]c1=O
2. CC(C)(O)/C=C\P(C)(=O)c1ccccc1 (configuration not stated)
3. O=C(Nc1ccc(F)cc1)c1cc2c(cc1Cl)Sc1nccn1S2(=O)=O
4. c1cnc2c(c1)-n1cccc1C1(CCOCC1)NN2
5. N#CCCCCN1CCCCC1
6. O=C(Cl)c1c(F)c(F)c(F)c(F)c1F
7. COc1cc(C(=O)NC2CCc3cc(OC)c(OC)c(OC)c3-c3ccc(OC)c(=O)cc32)cc(OC)c1OC (configuration not stated)

A)
-23.9
-4.7
-8.8
-54.5
-9.95
-7.4
3

Quick request: growth inhibition for each listed item, please.
1. N#CC(NNC(=O)Cc1ccccc1)c1ccccc1O (configuration not stated)
2. Cc1ccc(C(=O)NO)cc1

A)
[-2.05, 7.65]

Give growth inhibition for each of the items listed below.
1. CC(CO)CCNc1ncnc2c1ncn2CCC#N (configuration not stated)
2. CC1=CC(C)S(=O)(=O)C1 (configuration not stated)

A)
1: -46.5; 2: -89.1
